# maps each entry to its kon
Target: T1, Cynomolgus monkey BCMA (cynomolgus monkey)
T1 construct: Soluble analyte in SPR; also called cyBCMA; Cyno BCMA
Experiment: SPR, IgG immobilised, cyno BCMA analyte
Number only, in M⁻¹ s⁻¹; omit the unit.

# binder, readout units, kon
data = [
    ("A02_Rd4_0.6nM_C03 (antibody, V domains shown, IgG) VH: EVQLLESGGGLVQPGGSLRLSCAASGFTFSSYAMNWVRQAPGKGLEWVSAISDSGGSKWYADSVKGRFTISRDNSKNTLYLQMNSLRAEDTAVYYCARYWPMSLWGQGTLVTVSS VL: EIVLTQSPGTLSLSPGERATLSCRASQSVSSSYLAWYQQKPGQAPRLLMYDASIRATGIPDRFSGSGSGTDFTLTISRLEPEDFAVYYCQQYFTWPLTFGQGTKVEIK", "M⁻¹ s⁻¹", "2.12e+06"),
    ("COMBO_Rd4_0.6nM_C23 (antibody, V domains shown, IgG) VH: EVQLLESGGGLVQPGGSLRLSCAASGFTFSSYPMSWVRQAPGKGLEWVSALFGSGGSTYYADSVKGRFTISRDNSKNTLYLQMNSLRAEDTAVYYCARYWPMDSWGQGTLVTVSS VL: EIVLTQSPGTLSLSPGERATLSCRPRQSVSSSYLAWYQQKPGQAPRLLMYDASIRATGIPDRFSGSGSGTDFTLTISRLEPEDFAVYYCQQYQDWPLTFGQGTKVEIK", "M⁻¹ s⁻¹", "2.81e+06"),
    ("COMBO_Rd4_0.6nM_C30 (antibody, V domains shown, IgG) VH: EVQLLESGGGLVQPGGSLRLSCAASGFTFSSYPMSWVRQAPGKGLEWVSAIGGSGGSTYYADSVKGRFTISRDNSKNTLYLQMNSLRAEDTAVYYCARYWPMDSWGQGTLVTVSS VL: EIVLTQSPGTLSLSPGERATLSCRASQSVSYMYLAWYQQKPGQAPRLLIYDASIRATGIPDRFSGSGSGTDFTLTISRLEPEDFAVYYCQQYKSWPLTFGQGTKVEIK", "M⁻¹ s⁻¹", "1.68e+06"),
    ("C01_Rd4_6nM_C04 (antibody, V domains shown, IgG) VH: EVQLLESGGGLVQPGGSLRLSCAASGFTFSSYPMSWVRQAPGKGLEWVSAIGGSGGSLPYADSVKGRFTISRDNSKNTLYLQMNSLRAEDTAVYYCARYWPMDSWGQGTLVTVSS VL: EIVLTQSPGTLSLSPGERATLSCCSSQSVSSTYLAWYQQKPGQAPRLLIYDASSRAPGIPDRFSGSGSGTDFTLTISRLEPEDFAVYYCQQYSAFPLTFGQGTKVEIK", "M⁻¹ s⁻¹", "6.34e+06"),
]

We next turn to a different binder, shown below.
q: May I ask what kon has been recorded for COMBO_Rd4_6nM_C12 (antibody, V domains shown, IgG) VH: EVQLLESGGGLVQPGGSLRLSCAASGFTFSSYPMSWVRQAPGKGLEWVSAALGSGGSTYYADSVKGRFTISRDNSKNTLYLQMNSLRAEDTAVYYCARYWPMDSWGQGTLVTVS VL: EIVLTQSPGTLSLSPGERATLSCRASQSVSASYLAWYQQKPGQAPRLLMYDASIRATGIPDRFSGSGSGTDFTLTISRLEPEDFAVYYCQQYMSWPLTFGQGTKVEIK ?
a: 3.29e+06
